Source listed as the RNAGym collection of RNA variant scans (doi:10.7554/elife.80360).

B1: HDV Ribozyme (parent)
chain: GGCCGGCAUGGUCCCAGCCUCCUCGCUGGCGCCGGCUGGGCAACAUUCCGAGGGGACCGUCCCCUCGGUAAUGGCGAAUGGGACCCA

Variants of: B1
runDescription: self-cleavage, relative activity (ratio to wild type); higher = more cleavage; co-transcriptional

- sequenceData: "GGCCGGCAUGGUCCCAGCCUCCUCGCUGGCGCCGGCUGGGCAGCAUUCCAAGGGGACCGUCCCCUCGGUAAUGGCGAAUGGGACCCA"
  self-cleavage: 0.502
- sequenceData: "GGCCGGCAUGGUCCCAUCCUCCUCGCUGGCGCCGGCUGGGCAACAUUCCGAGGGGACCGUCCCCUCGGUAAUGGCGAAUGGGACCCG"
  self-cleavage: 0.499
- sequenceData: "GGCCGGCAUGGUCCCAGCCUCCUCGCUGGCGCCGGCUGGGCUACAUUCCGAGGGGACCGUCCCCUCGGUAACGGCGAAUGGGACCCA"
  self-cleavage: 0.508
- sequenceData: "GGCCGGCAUGGUCCCAGCCUCCUCGCUGGCGCCGGCUGGGCAACAUUCCGAGGGGACCGUCCCCUCCGUAAUGGCGAAUGGGAGCCA"
  self-cleavage: 0.499
